- Test system: HL-60 Human Leukemia
- test-name: HL-60 human leukemia xenograft in nude mice
- Type: in vivo
- measurement-setup: Table 5; dose 3 mg/kg ip
Structures can show the parent of a compound that is named as a salt.
This section presents molecules with their documented HL60 Mean Vol. ± SD values.

- molecule: "Cc1ccc(OC(=O)N2CCC(Nc3nc(N[C@H]4CC[C@H](N)CC4)nc4c3ncn4C3CCCC3)CC2)cc1.Cl.Cl"
  HL60 Mean Vol. ± SD: 2841
- molecule: "Cl.Cl.N[C@H]1CC[C@H](Nc2nc(NC3CCN(C(=O)c4cccc(C(F)(F)F)c4F)CC3)c3ncn(C4CCCC4)c3n2)CC1"
  HL60 Mean Vol. ± SD: 4948
- molecule: "N[C@H]1CC[C@H](Nc2nc(NC3CCN(C(=O)c4cccc(C(F)(F)F)c4)CC3)c3ncn(C4CCCC4)c3n2)CC1 [compound 3, dihydrochloride]"
  HL60 Mean Vol. ± SD: 6092
- molecule: "Cl.Cl.N[C@H]1CC[C@H](Nc2nc(NC3CCN(C(=O)Oc4ccc(Br)cc4)CC3)c3ncn(C4CCCC4)c3n2)CC1"
  HL60 Mean Vol. ± SD: 5104
- molecule: "COC(=O)c1ccc(OC(=O)N2CCC(Nc3nc(N[C@H]4CC[C@H](N)CC4)nc4c3ncn4C3CCCC3)CC2)cc1.Cl.Cl"
  HL60 Mean Vol. ± SD: 5906
- molecule: "Cl.Cl.N[C@H]1CC[C@H](Nc2nc(NC3CCN(C(=O)Oc4ccccc4)CC3)c3ncn(C4CCCC4)c3n2)CC1"
  HL60 Mean Vol. ± SD: 5215
- molecule: "COc1ccc(OC(=O)N2CCC(Nc3nc(N[C@H]4CC[C@H](N)CC4)nc4c3ncn4C3CCCC3)CC2)cc1.Cl.Cl"
  HL60 Mean Vol. ± SD: 4886

----------
Here, each record is paired with measured IC50 data.
- tested-on: cdk1/cyclin B (Homo sapiens, UniProt P06493)
- Sequence (P06493 whole entry): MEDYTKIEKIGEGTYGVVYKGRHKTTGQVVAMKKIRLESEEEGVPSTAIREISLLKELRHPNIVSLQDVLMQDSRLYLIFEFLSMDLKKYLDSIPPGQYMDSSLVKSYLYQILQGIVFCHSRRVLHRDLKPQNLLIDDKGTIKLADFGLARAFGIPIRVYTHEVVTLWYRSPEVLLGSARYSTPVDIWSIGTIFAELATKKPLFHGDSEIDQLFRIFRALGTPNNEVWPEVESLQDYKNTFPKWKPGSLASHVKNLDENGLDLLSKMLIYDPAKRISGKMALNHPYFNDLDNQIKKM
- Sequence (P14635 whole entry partner): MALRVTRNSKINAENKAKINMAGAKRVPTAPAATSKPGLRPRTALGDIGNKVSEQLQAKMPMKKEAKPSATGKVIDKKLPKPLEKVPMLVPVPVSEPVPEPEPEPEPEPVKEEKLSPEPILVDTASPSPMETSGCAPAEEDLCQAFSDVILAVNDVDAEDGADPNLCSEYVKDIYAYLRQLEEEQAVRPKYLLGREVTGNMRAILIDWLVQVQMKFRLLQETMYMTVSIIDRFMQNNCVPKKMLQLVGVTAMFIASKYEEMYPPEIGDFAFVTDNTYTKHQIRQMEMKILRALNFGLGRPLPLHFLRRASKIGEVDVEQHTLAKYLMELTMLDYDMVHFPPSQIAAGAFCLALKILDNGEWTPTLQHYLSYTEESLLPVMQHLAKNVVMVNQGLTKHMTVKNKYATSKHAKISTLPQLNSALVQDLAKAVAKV
- test-name: Cyclin-dependent kinase assay, cdk1/cyclin B
- measurement-setup: CDK1 IC50, nM, Histone H1, 10 µM ATP
Where a name gives a salt, the structure may show the parent alone.

- compound: "N[C@H]1CC[C@H](Nc2nc(NC3CCN(C(=O)Nc4ccccc4OC(F)(F)F)CC3)c3ncn(C4CCCC4)c3n2)CC1 [compound 174, dihydrochloride]"
  tested-on: "cdk1/cyclin B (Homo sapiens, UniProt P06493)"
  IC50, nM: 48
- compound: "Cc1ccc(S(=O)(=O)N2CCC(Nc3nc(N[C@H]4CC[C@H](N)CC4)nc4c3ncn4C3CCCC3)CC2)cc1 [compound 124, dihydrochloride]"
  tested-on: "cdk1/cyclin B (Homo sapiens, UniProt P06493)"
  IC50, nM: 10
- compound: "N[C@H]1CC[C@H](Nc2nc(NC3CCN(C(=O)c4ccc(Br)cc4)CC3)c3ncn(C4CCCC4)c3n2)CC1 [compound 74]"
  tested-on: "cdk1/cyclin B (Homo sapiens, UniProt P06493)"
  IC50, nM: 62
- compound: "N[C@H]1CC[C@H](Nc2nc(NC3CCN(C(=O)c4cccnc4)CC3)c3ncn(C4CCCC4)c3n2)CC1 [compound 67]"
  tested-on: "cdk1/cyclin B (Homo sapiens, UniProt P06493)"
  IC50, nM: 824
- compound: "N[C@H]1CC[C@H](Nc2nc(NC3CCN(C(=O)Nc4ccc(Cl)cc4C(F)(F)F)CC3)c3ncn(C4CCCC4)c3n2)CC1 [compound 178, dihydrochloride]"
  tested-on: "cdk1/cyclin B (Homo sapiens, UniProt P06493)"
  IC50, nM: 49
- compound: "CCCCNC(=O)N1CCC(Nc2nc(N[C@H]3CC[C@H](N)CC3)nc3c2ncn3C2CCCC2)CC1 [compound 204, dihydrochloride]"
  tested-on: "cdk1/cyclin B (Homo sapiens, UniProt P06493)"
  IC50, nM: 200
- compound: "Cc1cccc(C(=O)N2CCC(Nc3nc(N[C@H]4CC[C@H](N)CC4)nc4c3ncn4C3CCCC3)CC2)c1 [compound 73]"
  tested-on: "cdk1/cyclin B (Homo sapiens, UniProt P06493)"
  IC50, nM: 100
- compound: "COc1ccc(CC(=O)N2CCC(Nc3nc(N[C@H]4CC[C@H](N)CC4)nc4c3ncn4C3CCCC3)CC2)cc1 [compound 42, dihydrochloride]"
  tested-on: "cdk1/cyclin B (Homo sapiens, UniProt P06493)"
  IC50, nM: 21
- compound: "CC1(C)C2CCC1(CS(=O)(=O)N1CCC(Nc3nc(N[C@H]4CC[C@H](N)CC4)nc4c3ncn4C3CCCC3)CC1)C(=O)C2 (stereo partly drawn) [compound 107, dihydrochloride]"
  tested-on: "cdk1/cyclin B (Homo sapiens, UniProt P06493)"
  IC50, nM: 250
- compound: "CSc1ccc(NC(=O)N2CCC(Nc3nc(N[C@H]4CC[C@H](N)CC4)nc4c3ncn4C3CCCC3)CC2)cc1 [compound 186, dihydrochloride]"
  tested-on: "cdk1/cyclin B (Homo sapiens, UniProt P06493)"
  IC50, nM: 11
- compound: "N[C@H]1CC[C@H](Nc2nc(NC3CCN(C(=O)Nc4ccc(Cl)c(C(F)(F)F)c4)CC3)c3ncn(C4CCCC4)c3n2)CC1 [compound 179, dihydrochloride]"
  tested-on: "cdk1/cyclin B (Homo sapiens, UniProt P06493)"
  IC50, nM: 8
- compound: "N[C@H]1CC[C@H](Nc2nc(NC3CCN(C(=O)Nc4cccc(C(F)(F)F)c4)CC3)c3ncn(C4CCCC4)c3n2)CC1 [compound 159, dihydrochloride]"
  tested-on: "cdk1/cyclin B (Homo sapiens, UniProt P06493)"
  IC50, nM: 4
- compound: "Cc1ccc(C(=O)N2CCC(Nc3nc(N[C@H]4CC[C@H](N)CC4)nc4c3ncn4C3CCCC3)CC2)cc1 [compound 77]"
  tested-on: "cdk1/cyclin B (Homo sapiens, UniProt P06493)"
  IC50, nM: 100
- compound: "CCCCCCNC(=O)N1CCC(Nc2nc(N[C@H]3CC[C@H](N)CC3)nc3c2ncn3C2CCCC2)CC1 [compound 185, dihydrochloride]"
  tested-on: "cdk1/cyclin B (Homo sapiens, UniProt P06493)"
  IC50, nM: 72
- compound: "N[C@H]1CC[C@H](Nc2nc(NC3CCN(C(=O)Nc4ccccc4Br)CC3)c3ncn(C4CCCC4)c3n2)CC1 [compound 168, dihydrochloride]"
  tested-on: "cdk1/cyclin B (Homo sapiens, UniProt P06493)"
  IC50, nM: 29
- compound: "COC(=O)c1ccc(C(=O)N2CCC(Nc3nc(N[C@H]4CC[C@H](N)CC4)nc4c3ncn4C3CCCC3)CC2)cc1 [compound 11, dihydrochloride]"
  tested-on: "cdk1/cyclin B (Homo sapiens, UniProt P06493)"
  IC50, nM: 46
- compound: "N[C@H]1CC[C@H](Nc2nc(NC3CCN(C(=O)c4cccc(C(F)(F)F)c4)CC3)c3ncn(C4CCCC4)c3n2)CC1 [compound 3, dihydrochloride]"
  tested-on: "cdk1/cyclin B (Homo sapiens, UniProt P06493)"
  IC50, nM: 55
- compound: "C=CCCOC(=O)N1CCC(Nc2nc(N[C@H]3CC[C@H](N)CC3)nc3c2ncn3C2CCCC2)CC1 [compound 100, dihydrochloride]"
  tested-on: "cdk1/cyclin B (Homo sapiens, UniProt P06493)"
  IC50, nM: 60
- compound: "N[C@H]1CC[C@H](Nc2nc(NC3CCN(C(=O)c4ccc(Cl)cc4Cl)CC3)c3ncn(C4CCCC4)c3n2)CC1 [compound 78]"
  tested-on: "cdk1/cyclin B (Homo sapiens, UniProt P06493)"
  IC50, nM: 101
- compound: "CC(CC(=O)N1CCC(Nc2nc(N[C@H]3CC[C@H](N)CC3)nc3c2ncn3C2CCCC2)CC1)CC(C)(C)C (mixture of isomers) [compound 45, dihydrochloride]"
  tested-on: "cdk1/cyclin B (Homo sapiens, UniProt P06493)"
  IC50, nM: 76
- compound: "N[C@H]1CC[C@H](Nc2nc(NC3CCN(C(=O)Nc4ccc(OC(F)(F)F)cc4)CC3)c3ncn(C4CCCC4)c3n2)CC1 [compound 175, dihydrochloride]"
  tested-on: "cdk1/cyclin B (Homo sapiens, UniProt P06493)"
  IC50, nM: 12
- compound: "COc1ccc(NC(=O)N2CCC(Nc3nc(N[C@H]4CC[C@H](N)CC4)nc4c3ncn4C3CCCC3)CC2)c(OC)c1 [compound 151, dihydrochloride]"
  tested-on: "cdk1/cyclin B (Homo sapiens, UniProt P06493)"
  IC50, nM: 60
- compound: "Cl.Cl.N[C@H]1CC[C@H](Nc2nc(NC3CCN(S(=O)(=O)c4ccc(F)cc4)CC3)c3ncn(C4CCCC4)c3n2)CC1 [compound 106, dihydrochloride]"
  tested-on: "cdk1/cyclin B (Homo sapiens, UniProt P06493)"
  IC50, nM: 8
- compound: "N[C@H]1CC[C@H](Nc2nc(NC3CCN(C(=O)Nc4ccccc4-c4ccccc4)CC3)c3ncn(C4CCCC4)c3n2)CC1 [compound 187, dihydrochloride]"
  tested-on: "cdk1/cyclin B (Homo sapiens, UniProt P06493)"
  IC50, nM: 280
